Quick reference for Enzyme degradation CDK9 (% remaining) @ 10 μM among some compounds
assay_target: CDK9 (Homo sapiens, UniProt P50750)
Construct: endogenous in cells; host or cells: MDA-MB-231
Sequence (P50750 whole entry): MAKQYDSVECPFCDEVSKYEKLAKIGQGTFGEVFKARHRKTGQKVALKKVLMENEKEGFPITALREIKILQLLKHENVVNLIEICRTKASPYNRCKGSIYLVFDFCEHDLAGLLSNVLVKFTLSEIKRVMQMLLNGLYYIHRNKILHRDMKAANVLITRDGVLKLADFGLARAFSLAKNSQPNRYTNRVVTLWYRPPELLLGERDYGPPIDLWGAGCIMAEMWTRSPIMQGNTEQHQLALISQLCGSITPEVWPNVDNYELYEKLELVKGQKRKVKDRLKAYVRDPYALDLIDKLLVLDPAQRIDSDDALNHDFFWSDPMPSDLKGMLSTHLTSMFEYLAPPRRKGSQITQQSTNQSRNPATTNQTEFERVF
assay_comment: CDK protein degradation activity (Western blotting), CDK9
Type: cell-based
measurement_parameters: MDA-MB-231 cells, 10 μM, 16 hours, Western blot
assay_metric: Enzyme degradation CDK9 (% remaining) @ 10 μM

{"columns": ["compound", "assay_target", "assay_result"],
 "data": [
  ["O=C1CC[C@H](N2C(=O)c3ccc(NCC(=O)N4CCN(CC5CCN(c6ccc(Nc7ncnc8c7ncn8[C@H]7C[C@@H](NC(=O)c8c(Cl)cccc8Cl)C7)cc6)CC5)CC4)cc3C2=O)C(=O)N1 [Compound 312]", "CDK9 (Homo sapiens, UniProt P50750)", "0/0/0%"],
  ["O=C1CCC(N2C(=O)c3cc(F)c(N4CCC5(CC4)CC(N4CCN(c6ccc(Nc7ncnc8c7ncn8[C@H]7C[C@@H](NC(=O)c8c(Cl)cccc8Cl)C7)cc6)CC4)C5)cc3C2=O)C(=O)N1 (stereo partly shown) [Compound 316]", "CDK9 (Homo sapiens, UniProt P50750)", "0/0/0%"],
  ["O=C1CC[C@H](N2C(=O)c3ccc(NCC(=O)N4CCC(CN5CCN(c6ccc(Nc7ncnc8c7ncn8C7CC(NC(=O)c8c(Cl)cccc8Cl)C7)cc6)CC5)CC4)cc3C2=O)C(=O)N1 (stereo partly shown) [Compound 164]", "CDK9 (Homo sapiens, UniProt P50750)", "0/0/0%"],
  ["O=C1CC[C@H](n2nnc3ccc(N4CCC(CN5CCN(c6ccc(Nc7ncnc8c7ncn8C7CC(NC(=O)c8cccc(F)n8)C7)cc6)CC5)CC4)cc3c2=O)C(=O)N1 (stereo partly shown) [Compound 429]", "CDK9 (Homo sapiens, UniProt P50750)", "0/0/0%"],
  ["O=C1CC[C@@H](c2cccc(OCC(=O)N3CC(N4CCC5(CC4)CC(N4CCN(c6ccc(Nc7ncnc8c7ncn8[C@H]7C[C@@H](NC(=O)Cc8ccccc8)C7)cc6)CC4)C5)C3)c2)C(=O)N1 [Compound 274]", "CDK9 (Homo sapiens, UniProt P50750)", "30/30/30%"],
  ["O=C1CC[C@H](N2C(=O)c3cccc(NCC(=O)N4CCN(CC5CCN(c6ccc(Nc7ncnc8c7ncn8[C@H]7C[C@@H](NC(=O)Cc8ccccc8)C7)cc6)CC5)CC4)c3C2=O)C(=O)N1 [Compound 322]", "CDK9 (Homo sapiens, UniProt P50750)", "20%"],
  ["O=C1CC[C@H](N2C(=O)c3ccc(N4CCN(CC5CCN(c6ccc(Nc7ncnc8c7ncn8[C@H]7C[C@@H](NC(=O)c8c(Cl)cccc8Cl)C7)cc6)CC5)CC4)cc3C2=O)C(=O)N1 [Compound 300]", "CDK9 (Homo sapiens, UniProt P50750)", "0%"],
  ["Cc1cccc(C(=O)N[C@H]2C[C@@H](n3cnc4c(NC5CCN(CCOC6CCN(C(=O)CNc7ccc8c(c7)C(=O)N(C7CCC(=O)NC7=O)C8=O)CC6)CC5)ncnc43)C2)n1 (stereo partly shown) [Compound 45]", "CDK9 (Homo sapiens, UniProt P50750)", "0/0/0%"],
  ["O=C1CC[C@H](N2C(=O)c3cccc(NCC(=O)N4CCC(CN5CCC(CNc6ncnc7c6ncn7[C@H]6C[C@@H](NC(=O)c7c(Cl)cccc7Cl)C6)CC5)CC4)c3C2=O)C(=O)N1 [Compound 170]", "CDK9 (Homo sapiens, UniProt P50750)", "10%"],
  ["O=C1CCC(N2C(=O)C=C(N3CCC(C(=O)NC[C@H]4CC[C@H](CN5CCN(c6ccc(Nc7ncnc8c7ncn8[C@H]7C[C@@H](NC(=O)Cc8ccccc8)C7)cc6)CC5)CC4)CC3)C2=O)C(=O)N1 (stereo partly shown) [Compound 201]", "CDK9 (Homo sapiens, UniProt P50750)", "0%"],
  ["Cc1cccc(C(=O)N[C@H]2C[C@@H](n3cnc4c(NC5CCN(CCCN6CCN(C(=O)CNc7cccc8c7C(=O)N([C@H]7CCC(=O)NC7=O)C8=O)CC6)CC5)ncnc43)C2)n1 [Compound 38]", "CDK9 (Homo sapiens, UniProt P50750)", "0/0/0%"],
  ["O=C1CC[C@H](N2C(=O)c3ccc(N4CC(C(=O)N5CCC(CCCN6CCN(c7ccc(Nc8ncnc9c8ncn9C8CC(NC(=O)Cc9ccccc9)C8)cc7)CC6)CC5)C4)cc3C2=O)C(=O)N1 (stereo partly shown) [Compound 372]", "CDK9 (Homo sapiens, UniProt P50750)", "0/0/0%"],
  ["Cc1cccc(C(=O)N[C@H]2C[C@@H](n3cnc4c(NCc5cccc(OCCCN6CCN(C(=O)CNc7cccc8c7C(=O)N([C@H]7CCC(=O)NC7=O)C8=O)CC6)c5)ncnc43)C2)n1 [Compound 103]", "CDK9 (Homo sapiens, UniProt P50750)", "10%"],
  ["Cc1cccc(C(=O)NC2CC(n3cnc4c(Nc5ccc(N6CCN(CC7CCN(C(=O)C8CCN(c9cc%10c(cc9F)C(=O)N([C@H]9CCC(=O)NC9=O)C%10=O)CC8)CC7)CC6)cc5C)ncnc43)C2)n1 (stereo partly shown) [Compound 477]", "CDK9 (Homo sapiens, UniProt P50750)", "30/30/30%"],
  ["Cc1cccc(C(=O)N[C@H]2C[C@@H](n3cnc4c(Nc5ccc(N6CCN(CCC7CCN(C(=O)COc8ccc([C@@H]9CCC(=O)NC9=O)cc8)CC7)CC6)cc5)ncnc43)C2)n1 [Compound 444]", "CDK9 (Homo sapiens, UniProt P50750)", "0/0/0%"],
  ["O=C1CC[C@H](N2C(=O)C=C(N3CCC(C(=O)N4CCC(CN5CCN(c6ccc(Nc7ncnc8c7ncn8[C@H]7C[C@@H](NC(=O)Cc8ccccc8)C7)cc6)CC5)CC4)CC3)C2=O)C(=O)N1 [Compound 189]", "CDK9 (Homo sapiens, UniProt P50750)", "0/0/0%"],
  ["Cc1cccc(C(=O)N[C@H]2C[C@@H](n3cnc4c(Nc5ccc(N6CCN(C(=O)CNc7cccc8c7C(=O)N([C@H]7CCC(=O)NC7=O)C8=O)CC6)cc5)ncnc43)C2)n1 [Compound 87]", "CDK9 (Homo sapiens, UniProt P50750)", "40%"],
  ["O=C1CC[C@@H](c2cccc(OCC(=O)N3CCC(CN4CCC(c5ccc(Nc6ncnc7c6ncn7C6CC(NC(=O)Cc7ccccc7)C6)cc5)CC4)CC3)c2)C(=O)N1 (stereo partly shown) [Compound 282]", "CDK9 (Homo sapiens, UniProt P50750)", "0/0/0%"],
  ["Cc1cccc(C(=O)N[C@H]2C[C@@H](n3cnc4c(Nc5ccc(N6CCN(CCC7CCN(C(=O)C8CCN(c9ccc%10c(c9)C(=O)N([C@H]9CCC(=O)NC9=O)C%10=O)CC8)CC7)CC6)cc5)ncnc43)C2)n1 [Compound 389]", "CDK9 (Homo sapiens, UniProt P50750)", "0/0/0%"]
]}
